Origin of values: PubChem BioAssay AID2227

# assay.system: Short transient receptor potential channel 4 (Mus musculus) (UniProt Q9QUQ5)
# Sequence (Q9QUQ5 whole entry, looked up): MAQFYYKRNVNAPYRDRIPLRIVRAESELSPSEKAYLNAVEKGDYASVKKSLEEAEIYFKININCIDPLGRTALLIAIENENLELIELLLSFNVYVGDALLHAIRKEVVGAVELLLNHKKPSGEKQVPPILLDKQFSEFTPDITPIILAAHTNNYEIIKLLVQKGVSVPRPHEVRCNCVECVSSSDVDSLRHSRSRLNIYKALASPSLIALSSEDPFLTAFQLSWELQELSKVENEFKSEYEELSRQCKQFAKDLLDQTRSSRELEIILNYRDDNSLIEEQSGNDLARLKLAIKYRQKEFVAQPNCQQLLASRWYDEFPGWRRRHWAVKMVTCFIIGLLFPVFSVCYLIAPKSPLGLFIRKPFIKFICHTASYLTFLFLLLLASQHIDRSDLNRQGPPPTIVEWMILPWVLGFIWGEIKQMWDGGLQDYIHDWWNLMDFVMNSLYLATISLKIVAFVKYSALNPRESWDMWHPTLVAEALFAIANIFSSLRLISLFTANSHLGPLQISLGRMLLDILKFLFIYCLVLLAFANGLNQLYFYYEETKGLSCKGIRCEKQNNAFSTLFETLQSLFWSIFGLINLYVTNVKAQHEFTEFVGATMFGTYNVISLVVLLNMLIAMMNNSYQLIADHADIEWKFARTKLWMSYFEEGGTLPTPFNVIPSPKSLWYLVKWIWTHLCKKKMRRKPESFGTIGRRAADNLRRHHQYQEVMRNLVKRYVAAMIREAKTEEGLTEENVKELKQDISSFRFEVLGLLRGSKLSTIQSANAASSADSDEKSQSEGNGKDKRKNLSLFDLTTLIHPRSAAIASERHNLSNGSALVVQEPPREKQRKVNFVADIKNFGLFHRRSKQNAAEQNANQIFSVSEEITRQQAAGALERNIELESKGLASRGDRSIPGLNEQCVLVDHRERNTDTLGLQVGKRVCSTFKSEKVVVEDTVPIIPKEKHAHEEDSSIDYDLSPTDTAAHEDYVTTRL
# measurement.notes: positive allosteric modulators of TRPC4, primary screen, cell-based, mouse TRPC4beta, HEK293 mu-opioid, Fluo-4 calcium (AID 2227)
# condition.summary: DAMGO EC20, Fluo-4 Ca2+ flux, at 10 µM
Screen size: about 310,000 compounds; about 1,300 (0.42%) were called active.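 Rule for the calls: active = B-score of calcium response area above 5 SD of library B-scores, with initial fluorescence ratio within 5 SD of library; inactive = the rest.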 The sample holds actives, similar compounds and a random draw of the others, so the mix is not that of the screen.
Reply using exactly one outcome from YES for active, NO for inactive

Please review the following examples before continuing.
compound	group
CCOC(=O)C1=C(c2ccc(OC)cc2)C(=O)c2ccccc2C1=O	NO
CCOc1ccc(Nc2nc(Cc3nnc(SCC(=O)NC4CCCC4)n3C)cs2)cc1	NO
O=C1/C(=C\c2cccnc2)CN(Cc2ccccc2)C/C1=C\c1cccnc1	NO
Cc1ccc(CN2CCN(c3ncccn3)CC2)c(C)c1	NO
CN1CCC(=O)N([C@H](CO)Cc2ccccc2)CC1	NO

### Prompt Query: recorded result category for NC(=O)C1=C[C@@H](c2csc3ccccc23)C[C@@H](OCc2ccc(CO)cc2)O1 in this test
### Response NO

### Prompt Query: recorded result category for CCOc1ccccc1NC(=S)NC(=O)CCc1ccccc1 in this test
### Response NO

### Prompt Query: recorded result category for CC1(C)CC(=O)C(N=Nc2c(F)cccc2F)=C(O)C1 in this test
### Response NO

---

# assay.system: Short transient receptor potential channel 4 (Mus musculus)
# measurement.notes: positive allosteric modulators of TRPC4, primary screen, cell-based, mouse TRPC4beta, HEK293 mu-opioid, Fluo-4 calcium (AID 2227)
# condition.summary: DAMGO EC20, Fluo-4 Ca2+ flux, at 10 µM
The whole screen tested about 310,000 compounds, of which about 1,300 (0.42%) were called active.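 The calls were made as follows: active = B-score of calcium response area above 5 SD of library B-scores, with initial fluorescence ratio within 5 SD of library; inactive = the rest.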 The sample holds actives, similar compounds and a random draw of the others, so the mix is not that of the screen.
Reply using exactly one outcome from class 1 for active, class 0 for inactive

Please review the following examples before continuing.
molecule	assay.system	group
C/C(=N\NC(=S)NC1CCCCC1)c1ccc(C)o1	Short transient receptor potential channel 4 (Mus musculus)	class 0
COC(=O)c1cc(C(=O)OCC(=O)Nc2cc(C)on2)cc([N+](=O)[O-])c1	Short transient receptor potential channel 4 (Mus musculus)	class 0
C=CCN(Cc1nc(-c2cc(OC)c3c(c2)OCO3)oc1C)C1CCS(=O)(=O)C1 (stereo not drawn)	Short transient receptor potential channel 4 (Mus musculus)	class 0
COc1ccc(OC)c(S(=O)(=O)N2CCCC(C(=O)NCCc3ccccc3)C2)c1 (stereo not drawn)	Short transient receptor potential channel 4 (Mus musculus)	class 0
O=S(=O)(NCCCc1ccccc1)c1ccc(Br)cc1	Short transient receptor potential channel 4 (Mus musculus)	class 0

### Prompt Query: recorded result category for CC1CN(CCOc2ccccc2[N+](=O)[O-])CC(C)O1 (stereo not drawn) in this test
### Response class 0

---

# assay.system: Short transient receptor potential channel 4 (Mus musculus) (UniProt Q9QUQ5)
# measurement.notes: positive allosteric modulators of TRPC4, primary screen, cell-based, mouse TRPC4beta, HEK293 mu-opioid, Fluo-4 calcium (AID 2227)
# condition.summary: DAMGO EC20, Fluo-4 Ca2+ flux, at 10 µM
Screen size: about 310,000 compounds; about 1,300 (0.42%) were called active.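 The calls were made as follows: active = B-score of calcium response area above 5 SD of library B-scores, with initial fluorescence ratio within 5 SD of library; inactive = the rest.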 Many of the other results were omitted from the sample, so actives are more common in it than they were.
Reply using exactly one outcome from active, inactive

compound	group
O=S(=O)(NCCc1ccccc1)c1ccccc1	inactive
CCOC(=O)c1ccc(-c2ccc(C(=O)Nc3cccnc3)o2)cc1	inactive
OC(CNCC1CCCO1)Cn1c2ccc(Br)cc2c2cc(Br)ccc21 (configuration not stated)	active
O=C(c1cc(Cl)cc(Cl)c1)N1CCC(=O)N(C(COCc2ccccc2)Cc2ccccc2)CC1 (configuration not stated)	active
COC(=O)C(C)Sc1nc2c(c(=O)n(C)c(=O)n2C)n1Cc1cccc(C)c1 (configuration not stated)	inactive
CC1CC(C)CN(CCOc2cccc3ccccc23)C1 (configuration not stated)	active

### Prompt Query: recorded result category for O=S(=O)(c1ccc(Br)cc1)c1nc(-c2ccccc2)oc1N1CCOCC1 in this test
### Response active

### Prompt Query: recorded result category for COC(=O)c1c(NC(=O)CN2CCN(S(=O)(=O)c3ccccc3[N+](=O)[O-])CC2)sc2c1CCC(C)C2 (configuration not stated) in this test
### Response inactive

### Prompt Query: recorded result category for C(=N\n1cnnc1)/c1cccnc1 in this test
### Response inactive

### Prompt Query: recorded result category for CCC(C)(C)NC(=O)c1cc([N+](=O)[O-])ccc1N1CCCCC1 in this test
### Response inactive

### Prompt Query: recorded result category for Cc1cc(S(=O)(=O)c2cc3ccc(O)c(C)c3oc2=O)ccc1F in this test
### Response inactive

### Prompt Query: recorded result category for CCCCCCCNc1nc(Cl)nc(NCCO)n1 in this test
### Response inactive
